# Test system: PPARg DBDmut IVT, anti-PPARg (DBD mutation: PPARg1 K132A/R137A, NR concentration 270 nM)
# experiment: PBM binding z-score (relative to random genomic background probes); higher = stronger binding; sequences stand for … in GC…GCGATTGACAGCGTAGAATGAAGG
Entries and their measured PBM binding z-score follow.

sequence-string	PBM binding z-score
ATCGAAAGGGCGTGAGGTGAGTATACAGAAAGGC	0.814
CAAACTAGGTCACAGAGGTCGAAGTCCGTGCGTA	0.791
AGAATGAGGTTATACGTAGGTCAGGGAAGAAAGT	0.81

* * *

# Test system: PPARg DBDmut IVT, anti-PPARg (DBD mutation: PPARg1 K132A/R137A, NR concentration 270 nM)
# experiment: PBM binding z-score (relative to random genomic background probes); higher = stronger binding; sequences stand for … in GC…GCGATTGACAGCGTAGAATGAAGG
Reported PBM binding z-score values for the following sequences.

sequence-string	PBM binding z-score
CAAAGTAGGTCAAGAGGTCAAAGTCCGCTTCCCG	1.18
ATCGAAAGGTCGAGGAGGTGAGTATACACCGTTT	0.557
TGTCAGAGTTCAAAGGTAACGTAAGTATCCACAC	1.01
TTACCAAGGTGAAGGTCGTGGATCCCTCTGTAGA	0.188
CGAACTAGGTCACCAGGGCAGTGAAGAGGTTGGA	0.642
CCGACTGGGGCAAAGGTTACGATACTCAGTACGA	0.584
CCTACTGGGCCATGAAAGGTCATTGATTCAGTGA	0.328
AGTCAAAGTTCAGGACGAGGTAATGTAAAGCACG	0.146
ATATGTAGGTTAGGGTGATTCAGAAAGTAGGGAA	1.41
GTACCAAGGTGAATAGGTCGTTGATGAGTAGGCG	0.294

Data provenance: the supplement of paper PMC6555819
